- tested-on: Gal3S(b1-4)GlcNAc6S
- assay-overview: glycan array binding signal (z-score within array); higher = stronger binding
- cond: glycan notation: IUPAC condensed, linker removed
This is one part of a sample in which the strongest signals are shown more often than they occur.
glycan array binding signal (z-score) reference
// return a plain number; no unit text

KISKRILTGKK [NK11 (Sus scrofa)]: 3.4

Now let's try a different one.
Input: I would be grateful if you could share the reported glycan array binding signal (z-score) for GALT1 615 (Arabidopsis thaliana), Q8L7F9 (protein) DPMRGSHHHHHHGMASMTGGQQMGRDLYDDDDKSRLQKPYITAAASVVVTPNTTLPMEWLRITLPDFMKEARNTQEAISGDDIAVVSGLFVEQNVSKEEREPLLTWNRLESLVDNAQSLVNGVDAIKEAGIVWESLVSAVEAKKLVDVNENQTRKGKEELCPQFLSKMNATEADGSSLKLQIPCGLTQGSSITVIGIPDGLVGSFRIDLTGQPLPGEPDPPIIVHYNVRLLGDKSTEDPVIVQNSWTASQDWGAEERCPKFDPDMNKKVDDLDECNKMVGGEINRTSSTSLQSNTSRGVPVAREASKHEKYFPFKQGFLSVATLRVGTEGMQMTVDGKHITSFAFRDTLEPWLVSEIRITGDFRLISILA .
Output: -0.044

The reported measurements were obtained from the supplement of paper PMC8728848.
